# TEST_SYSTEM: human CD33 F44I (human, UniProt P20138 18-364)
# Sequence (P20138 18-364 F44I limits assumed): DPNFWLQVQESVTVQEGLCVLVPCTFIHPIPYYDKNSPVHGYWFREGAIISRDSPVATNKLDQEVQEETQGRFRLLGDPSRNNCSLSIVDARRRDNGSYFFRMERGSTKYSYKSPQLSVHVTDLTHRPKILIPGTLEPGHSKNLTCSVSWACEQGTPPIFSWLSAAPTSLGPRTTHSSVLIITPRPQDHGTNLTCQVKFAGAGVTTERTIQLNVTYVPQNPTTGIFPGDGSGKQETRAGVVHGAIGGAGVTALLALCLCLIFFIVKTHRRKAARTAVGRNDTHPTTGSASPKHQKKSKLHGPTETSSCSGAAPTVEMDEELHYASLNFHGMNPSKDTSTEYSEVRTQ
# MEASUREMENT_NOTES: flow cytometry, mutant on cells, IgG
MEASURED_METRIC: Mean % WT Binding

Given the entry Refmab #4 (antibody, human IgG1, V domains shown, Tested in IgG format; human IgG1 Fc silent (PG-LALA)) VH: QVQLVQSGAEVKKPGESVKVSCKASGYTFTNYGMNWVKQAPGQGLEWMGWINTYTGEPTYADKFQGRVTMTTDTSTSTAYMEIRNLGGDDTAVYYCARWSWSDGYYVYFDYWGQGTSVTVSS VL: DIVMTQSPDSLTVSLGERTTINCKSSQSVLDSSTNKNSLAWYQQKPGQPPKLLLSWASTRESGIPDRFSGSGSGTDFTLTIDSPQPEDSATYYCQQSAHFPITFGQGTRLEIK , report its measured Mean % WT Binding.
98.7 % WT binding
